System: K. pneumo JMI 2681
Assay: MIC, antibacterial and synergistic activity
Format: cell-based
Details: K. pneumo JMI 2681 (Oxa-48 (Cpase)); Aztreonam + inhibitor at 4 µg/mL
recorded endpoint: MIC Aztreonam + inhibitor (µg/mL)
Reply numerically in µg/mL, unit not repeated.

Input line: What measured MIC Aztreonam + inhibitor goes with `O=C(NO[C@H]1CCNC1)[C@@H]1CC[C@@H]2CN1C(=O)N2OS(=O)(=O)O` ?
Output line: 4

Input line: What measured MIC Aztreonam + inhibitor goes with `CC(=O)NNC(=O)[C@@H]1CC[C@@H]2CN1C(=O)N2OS(=O)(=O)O` ?
Output line: 0.5

Input line: What measured MIC Aztreonam + inhibitor goes with O=C(NNC(=O)[C@H]1CC[C@H]2CN1C(=O)N2OS(=O)(=O)O)C1CC1 (stereo in doubt) ?
Output line: 0.25

Input line: What measured MIC Aztreonam + inhibitor goes with `O=C(NO[C@H]1CCCNC1)[C@@H]1CC[C@@H]2CN1C(=O)N2OS(=O)(=O)O` ?
Output line: 2

Input line: What measured MIC Aztreonam + inhibitor goes with `NCCONC(=O)[C@@H]1CC[C@@H]2CN1C(=O)N2OS(=O)(=O)O` ?
Output line: 1

Input line: What measured MIC Aztreonam + inhibitor goes with `CCC(=O)NNC(=O)[C@@H]1CC[C@@H]2CN1C(=O)N2OS(=O)(=O)O` ?
Output line: 0.125

Input line: What measured MIC Aztreonam + inhibitor goes with O=C(NNC(=O)[C@H]1CC[C@H]2CN1C(=O)N2OS(=O)(=O)O)C1CNC1 (stereo in doubt) ?
Output line: 0.25
